Each record here notes measured TGI.
Test system: SW-620 colon
PROTOCOL: NCI tumour cell line growth inhibition, 48 h
Where a SMILES comes first, the peptide text is derived from it. [ ]: non-standard residue; d: D form. The star is where a group is joined. ξ: configuration not given here. ξD = NC(CC(=O)O)C(=O)O; Ac3c = NC1(C(=O)O)CC1; Boc = CC(C)(C)OC(=O)*; OtBu = CC(C)(C)O*

Solved cases (3 shown):
compound=O/N=C1\CCc2nonc2\C1=N/Nc1ccccc1 result="> 100 µM"
compound=Nc1ncccc1-c1nc2ccc(-c3ccccc3)nc2n1-c1ccc(C2(N)CCC2)cc1 result="3.35 µM"
compound="O=C1NC2CCCCC2N=C1/C(C(=O)c1ccccc1)=C(\\O)c1ccccc1 (stereo unspecified)" result="> 100 µM"

Task: If you can, please state the reported TGI value of CC(=O)Nc1ccc(C(=O)NN2C(=O)C(Cl)C2c2ccc(O)cc2)cc1 (stereo unspecified) .
Result: > 100 µM

Task: If you can, please state the reported TGI value of Cc1cc(O)ccc1C1(c2ccc(F)cc2)OC(=O)c2ccccc21 (stereo unspecified) .
Result: 25.5 µM

Task: If you can, please state the reported TGI value of `Clc1nc(Nc2nc3ccccc3[nH]2)nc(Cl)c1Cc1ccccc1` .
Result: > 100 µM

Task: If you can, please state the reported TGI value of `COC(=O)/C=C/c1cc(OC)c2oc(-c3ccc(OC)c(OC)c3)c(C(=O)OC)c2c1` .
Result: > 100 µM

Task: If you can, please state the reported TGI value of COC(=O)C1(NC(=O)C(CC(=O)OC(C)(C)C)NC(=O)OC(C)(C)C)CC1 (stereo unspecified) (Boc-[ξD](OtBu)-[Ac3c]-OMe) .
Result: > 100 µM

Task: If you can, please state the reported TGI value of `N#CC1(c2ccccc2)CCN(C2(c3ccccc3)CCCCC2)CC1` .
Result: > 100 µM

Task: If you can, please state the reported TGI value of O=C(O)c1cc(Cl)cc2c1NC1(N2)C(=O)Nc2ccccc21 (stereo unspecified) .
Result: > 100 µM

Task: If you can, please state the reported TGI value of OC(CCN1CCN(CCOC(c2ccccc2)c2ccccc2)CC1)c1ccc(Br)cc1 (stereo unspecified) .
Result: 44.5 µM

Task: If you can, please state the reported TGI value of CCOP(=O)(OCC)C1(O)CC(n2cc(C)c(=O)[nH]c2=O)OC1CO (stereo unspecified) .
Result: > 100 µM

Task: If you can, please state the reported TGI value of `O=C(Nc1cnc(C(F)(F)F)cn1)c1cc(Cl)ccc1O` .
Result: > 100 µM

Task: If you can, please state the reported TGI value of Nc1ncnc2c1nnn2C1C=C(CO)C(O)C1O (stereo unspecified) .
Result: > 63.1 µM

Task: If you can, please state the reported TGI value of O=C1CCC(N2C(=O)c3cccc(NCCCC4CCN(CCNC(=O)c5cc6c(o5)C(=O)c5ccccc5C6=O)CC4)c3C2=O)C(=O)N1 (stereo unspecified) .
Result: 1.86 µM

Task: If you can, please state the reported TGI value of `CC(=O)NNc1nc(C)c(C(=O)/C=C/c2ccc(/C=C/C(=O)c3sc(NNC(C)=O)nc3C)cc2)s1` .
Result: > 100 µM

Task: If you can, please state the reported TGI value of `O=C(N/N=C/c1ccc(Cl)cc1)c1cc(I)cc(I)c1O` .
Result: > 100 µM

Task: If you can, please state the reported TGI value of `Clc1ccccc1NN(Cc1ccncc1)c1ccccc1Cl` .
Result: 35.1 µM

Task: If you can, please state the reported TGI value of O=C1CCC2(O)C3Cc4ccc(Oc5nnnn5-c5ccccc5)c5c4C2(CCN3CC2CC2)C1O5 (stereo unspecified) .
Result: > 100 µM
